Tested on: M14 melanoma
Protocol: NCI-60 one-dose screen, 48 h (100 = growth as untreated, 0 = no growth, -100 = all killed)
Assay setup: 10 µM unless noted
Protocol: Growth inhibition of the M14 human tumor cell line is measured as a screen for anti-cancer activity. Cells are grown in 96 well plates and exposed to the test compound for 48 hours. Compounds are tested at a single concentration, which is 10^-5 M for most compounds. The reported endpoint is percent growth (GI% or GIPRCNT), where numbers from 0 - 100% represent growth inhibition, and numbers from -100% - 0 represent cell death. For example, a value of 40 represents 60% growth inhibition. […]
The panel holds about 83,000 compounds, 20% with a hit somewhere; the sample as a whole holds those more often.
Property: growth; scope: individual molecules
// note: answer is a bare numeric in %

Could you share which growth value was measured for CC1(C)c2ccccc2C(=O)C1(Br)Cc1ccccc1 (stereo not given) ?
89.1

###

Tested on: NCI-H460 lung
Protocol: NCI-60 one-dose screen, 48 h (100 = growth as untreated, 0 = no growth, -100 = all killed)
Assay setup: 10 µM unless noted
Compounds without any hit were thinned out: in the full panel of roughly 83,000, 20% have a hit.
Just a reminder that ties go to -1: only growth strictly below 50% counts as 1.

Sample answers from the record:
Compound	Cat
COc1ccc(C2NC(=O)Nc3ccccc32)c(OC)c1 (configuration not stated)	-1
Brc1ccc2c(c1)c(-c1nc(-c3c[nH]c4ncccc34)cs1)cn2CCCN1CCCCC1	1
CC(=O)Oc1ccccc1C(=O)/C=C/c1cccc([N+](=O)[O-])c1	-1
COC(=O)[C@]12CC[C@@H](C)[C@H](C)[C@@H]1C1=CC[C@@H]3[C@@]4(C)C=C(O)C(=O)C(C)=C4CC[C@@]3(C)[C@]1(C)CC2	1

# next compound below
Does this compound meet the criterion growth < 50%? `CCCCCCCC(=O)SCC/C=C/[C@@H]1CC(=O)NCc2cccc(n2)CN(Cc2ccc3ccccc3c2)CC(=O)N[C@@H](C(C)C)C(=O)O1`
1

###

Tested on: OVCAR-4 ovarian
Protocol: NCI-60 one-dose screen, 48 h
Assay setup: 10 µM unless noted
Compounds without any hit were thinned out: in the full panel of roughly 83,000, 20% have a hit. Calls of active or inactive are those of the source. How the source made its calls: active means growth percent below 10; inactive means the rest.
Give one outcome, nothing more. List: True for active, False for inactive

Please review the following examples before continuing.
Compound	Study target	Cat
C[N+](C)(CCCCCC[N+](C)(C)C1c2ccccc2-c2ccccc21)C1c2ccccc2-c2ccccc21	OVCAR-4 ovarian	False
CC(C)(C)c1ccc(OCCCCCCCN2CCNCC2)cc1	OVCAR-4 ovarian	False
CCCCn1c(-c2ccc(O)cc2)cn2c3c(=O)[nH]c(=O)n(C)c3nc12	OVCAR-4 ovarian	False

GET /call?item= `C=C1CC[C@@H](C(=O)OC)Cc2nc(C)ccc21` returns the recorded outcome of this test.
False

Next up: `N#C/C(=C\c1ccc(-c2ccc(F)cc2)o1)c1nc(-c2ccco2)cs1`
False

How about `O=C1NC(c2ccc(Cl)c(Cl)c2)=C/C1=C\c1ccccc1` ?
True

Item: `Nc1ccc(Br)cn1`
False

###

Tested on: DU-145 prostate
Protocol: NCI-60 one-dose screen, 48 h
Assay setup: 10 µM unless noted
The panel holds about 83,000 compounds, 20% with a hit somewhere; the sample as a whole holds those more often. Active and inactive are the calls of the source. The calls were made as follows: active = growth percent below 10; inactive = the rest.
Thanks in advance; please answer with one of these: active, inactive

Call for entry `C/C(=N\Nc1cc(C)c2ccccc2n1)c1ccccn1` :
inactive

# repeat for `C=C(C)[C@@H]1CC[C@]2(/C=N/Nc3ccncc3)CC[C@]3(C)[C@H](CC[C@@H]4[C@@]5(C)CCCNC(C)(C)[C@@H]5CC[C@]43C)[C@@H]12`
inactive

// repeat for `O=[N+]([O-])c1ccc(N/N=C(\C(=N/Nc2ccc([N+](=O)[O-])cc2[N+](=O)[O-])c2ccccc2)c2ccccc2)c([N+](=O)[O-])c1` and report
inactive

Next record, please: `Cc1nn2c(-c3nc4cc(Cl)c(Cl)cc4[nH]3)c(-c3ccc(F)cc3)nc2s1`
inactive

// same read-out, input: `CC(C)C[C@@H](NC(=O)[C@@H](Cc1ccccc1)NC(=O)c1cnccn1)B1O[C@H]2[C@H](O)[C@@H](C(=O)NCCCC[C@@H]3NC(=O)[C@@H](Cc4ccccc4)NC(=O)[C@H](CC(=O)O)NC(=O)CNC(=O)[C@H](CCCN=C(N)N)NC3=O)O[C@@H](CN)[C@H]2O1`
active

Repeat with `O=C(O)c1cccc2c1Cc1cc([N+](=O)[O-])ccc1-2`
inactive

`Cc1ccc(-c2ccc(/C=C(\C#N)c3nc(-c4ccco4)cs3)o2)cc1` ?
inactive

Cool, now Cc1ccc(C)c2c1CCC2C(C)C (stereo not drawn)
inactive

###

Recorded growth for the following compounds
System: UO-31 renal
Protocol: NCI-60 one-dose screen, 48 h (100 = growth as untreated, 0 = no growth, -100 = all killed)
Assay setup: 10 µM unless noted
This is part of a sample that, as a whole, favours compounds with a hit. Of some 83,000 tested, about 20% had one in any assay.
Give just the number in %; leave the unit off.

Compound	Reading
CC(C)/C=C/CC[C@](C)(O)[C@H]1CC[C@]2(C)[C@@H]1CC[C@@H]1[C@@]3(C)C/C(=C/c4cccc(C(F)(F)F)c4)C(=O)C(C)(C)[C@@H]3CC[C@]12C	79.6
O=C1NC(c2ccc(Cl)c(Cl)c2)=C/C1=C\c1ccccc1	29.2
Cn1cc(-c2csc(-c3cn(CCNC(=O)OC(C)(C)C)c4ccccc34)n2)c2cccnc21	42.7
O=[N+]([O-])c1cccc(/C=N\Nc2ccccc2)c1	47.4

Kindly review the next compound as well.
I am curious: what growth value has been reported for c1ccc(C2Cc3ccccc3C2=NC2CCCCC2)cc1 (stereo not given) ?
89.5

###

System: SF-268 CNS
Protocol: NCI-60 one-dose screen, 48 h (100 = growth as untreated, 0 = no growth, -100 = all killed)
Assay setup: 10 µM unless noted
The panel holds about 83,000 compounds, 20% with a hit somewhere; the sample as a whole holds those more often.
Reported property: growth (%)
Record the value in %, omitting the unit from your answer.

// below: answered molecules
Molecule	Measurement unit	growth
Cc1ccc(Cc2cnc(NC(=O)/C=C/c3cccc(C)c3)s2)cc1	%	44.7
c1cc(N2CCCC2)c2nc(-c3[nH]ncc3Nc3ncnc4[nH]ccc34)[nH]c2c1	%	-25.1
CCCCCCCN(CCCCCCC)C(=N)c1ccnc2ccccc12	%	33
NNC(=O)c1nc2ccccc2[nH]1	%	102
Cn1cc(-c2csc(-c3cn(CCN)c4ccccc34)n2)c2cccnc21	%	64.4

Tell me the measured growth of `C=C(C)[C@@H]1CC[C@]2(C)[C@H](CC[C@@H]3[C@H]4[C@H]5OC[C@@]4(CCC5(C)C)CC[C@]32C)[C@@]1(C)CCCN` , please.
92.1

Likewise for `NCCNc1nc(-c2ccccc2)nc2nc(-c3ccccc3)oc12` ?
73.3

Cool, now `COC(=O)CCCCCn1c2ccccc2c2c3c(c4c5ccccc5[nH]c4c21)C(=O)N(O)C3=O`
45.6

What do you get for `O=C1Nc2ccccc2/C1=C/c1cn(CCCn2c3ccccc3c(=O)c3ccccc32)c2ccccc12` ?
79.2

Try this molecule next: N#CC1=C(N)Oc2c(c(N)nn2-c2ccccc2)C1c1ccc(Cl)cc1 (stereo not given)
94.1

Moving on to the next molecule: `O=C(N/N=C\c1c(O)ccc2ccccc12)C1CC1`
42.3

# iterate: `C/C(=N\Nc1cc(C)c2cc(C)ccc2n1)c1ccccn1`
-4.43

`Cn1c2c(Cl)c(Cl)ccc2c2c(C#N)c[nH]c(=O)c21` ?
99

Also check `N#C/C(=C\c1ccc(-c2ccc(Br)cc2)o1)c1nc(-c2cccs2)cs1`
102

###

System: NCI-H460 lung
Protocol: NCI-60 one-dose screen, 48 h
Assay setup: 10 µM unless noted
This is part of a sample that, as a whole, favours compounds with a hit. Of some 83,000 tested, about 20% had one in any assay. The source made the active and inactive calls. The calls were made as follows: active = growth percent below 10; inactive = the rest.
API: response.call in T = active, F = inactive

Would you please look over these solved cases?
Compound	Study target	Cat
NC(=O)[C@@H]1CC2CCC1C2 (stereo partly specified)	NCI-H460 lung	F
C=C1C(=O)O[C@H]2[C@H]1CC/C(Cn1cc(-c3ccc(OC)cc3)nn1)=C\CC[C@@]1(C)O[C@@H]21	NCI-H460 lung	F
O=[N+]([O-])c1cccc(/C=N\Nc2ccccc2)c1	NCI-H460 lung	F

// outcome(item) with item = `COc1ccc2c(c1)c(-c1nc(-c3c[nH]c4ncccc34)cs1)cn2CCN`
F

###

Tested on: KM12 colon
Protocol: NCI-60 one-dose screen, 48 h
Assay setup: 10 µM unless noted
Compounds without any hit were thinned out: in the full panel of roughly 83,000, 20% have a hit. Active and inactive are the calls of the source. Rule for the calls: active = growth percent below 10; inactive = the rest.
Write down the outcome that applies. Available outcomes: y (active), n (inactive)

Example entries and their recorded answers appear below.
Molecule	Cat
CC(C)(C)CC(C)(C)c1ccc(OCCOCC[N+](C)(C)CC(=O)[O-])cc1	n
C[C@H]1[C@H]2C3=CC[C@@H]4[C@@]5(C)C/C(=C/c6ccco6)C(=O)C(C)(C)[C@@H]5CC[C@@]4(C)[C@]3(C)CC[C@@]2(C(=O)N2CCOCC2)CC[C@@H]1C	n
C=COCCCCCCCCCCCCCCCCCC	n
COc1cc2nc(Cl)nc(Nc3cccc(C(=O)/C=C/c4ccc(Br)cc4)c3)c2cc1OC	n
C=C(C)[C@@H]1CC[C@]2(C)[C@H](CC=C3[C@@H]4CC(C)(C)CC[C@]4(C=O)CC[C@]32C)[C@@]1(C)CCCN	n

Outcome logged for `CC(=O)O[C@H]1CC[C@@]2(C)C(=CC[C@@H]3[C@@H]2CC[C@]2(C)C(=O)N(O)C(=O)C[C@@H]32)C1` in this assay:
n

Also check `C#CCn1c2c(c3ccccc31)C[C@]1(C)[C@H]3CC[C@@H]4[C@@H]5C(=CCC[C@H]5C(=C)C)CC[C@@]4(C)[C@]3(C)CC[C@H]1C2(C)C`
n

Same lookup for `COc1ccc2c(c1)c(-c1nc(-c3cn(C)c4ncccc34)cs1)cn2CCN` , please.
n

What do we get for Oc1ccc(CCC2CCCC(CCc3ccc(OCCF)cc3)N2)cc1 (configuration not stated) ?
n

Could you do the same for `C=C(C)[C@@H]1CC[C@]2(/C=N/Nc3ccncc3)CC[C@]3(C)[C@H](CC[C@@H]4[C@@]5(C)CCCNC(C)(C)[C@@H]5CC[C@]43C)[C@@H]12` , please?
n

Would you kindly repeat that for `COc1ccc(NC(=O)c2ccoc2COc2ccccc2)cc1` ?
n

Next: `O=C1c2cccc3cccc(c23)C(=O)N1CC#Cc1ccc2c3c(cccc13)C(=O)N(CCN1CCNCC1)C2=O`
n

Another molecule to check: `COc1cnc2c(c1)C(=O)c1c-2n(CCCNC2=NCCS2)c(=O)c2cc([N+](=O)[O-])ccc12`
y

Please answer likewise for Cc1csc(-c2ccc3c(c2)COC3(CCCN(C)C)c2ccc(F)cc2)c1 (configuration not stated)
n

What about `COc1ccc2c(c1)c1nc3cc(C)c(C)cc3nc1n2CCN(C)C` ?
n

Would you kindly repeat that for `Cc1ccc2c(c1)c(-c1nc(-c3c[nH]c4ncccc34)cs1)cn2C` ?
n

// repeat for `Cc1csc(Nc2nc(-c3ccc(Cl)cc3)nc(C(Cl)(Cl)Cl)n2)n1` and report
n

Repeat for the following molecule: COc1cc(NC(C)CN(CC(C)C)C(C)C)c2ncccc2c1 (configuration not stated)
n

Param item: `O=c1c(CNc2ccc(S(=O)(=O)Nc3ncccn3)cc2)coc2ccccc12`
n

Also `COc1ccc(-c2nc(SCC(=O)Nc3ccc(C(C)=O)cc3)[nH]c(=O)c2C#N)cc1` ?
n

Let us now turn to `COc1cc(-c2nc(-c3ccccc3)c(-c3ccccc3)[nH]2)cc(OC)c1O`
y
